- Tested on: pigweed (Amaranthus retroflexus)
- testName: Test B postemergence
- Assay type: in vivo
- statedConditions: Rate 500 g/ha, scale 0 to 100, 0 is no effect, 100 is complete control, 13 to 15 days
Some compounds, each annotated with its measured Plant response rating, Pigweed.
outcomeMeasure: Plant response rating, Pigweed

>>> endpointresult("CCCCC(CCCC)c1ccn(C2SCN(c3cccc(OC(F)(F)F)c3)C2=O)n1 (stereo not drawn)")
60
>>> endpointresult("CC1(c2ccn(C3SCN(c4cccc(OC(F)(F)F)c4)C3=O)n2)CC1 (stereo not drawn)")
70
>>> endpointresult("Cc1c(Cl)cc(N2CCC(n3ccc(C(C)(C)C)n3)C2=O)cc1Cl (stereo not drawn)")
90
>>> endpointresult("CCCC(C)c1ccn(C2CCN(c3cccc(OC)c3)C2=O)n1 (stereo not drawn)")
0
>>> endpointresult("CC(C)(C)c1ccn(C2CCN(c3cc(C(F)(F)F)cc(C(F)(F)F)c3)C2=O)n1 (stereo not drawn)")
0
>>> endpointresult("CCOC(=O)c1cccc(N2CCC(n3ccc(C(C)(C)C)n3)C2=O)c1 (stereo not drawn)")
60
>>> endpointresult("CC1(c2ccn(C3OCN(c4cccc(C(F)(F)F)c4)C3=O)n2)CC1 (stereo not drawn)")
40
>>> endpointresult("CC(C)(C)c1ccn(C2CCN(c3cccc(OC(F)(F)C(F)F)c3)C2=O)n1 (stereo not drawn)")
0
>>> endpointresult("Cc1cc(N2CCC(n3ccc(C(C)(C)C)n3)C2=O)cc(Br)c1C (stereo not drawn)")
80

====

- Test system: barnyardgrass (Echinochloa crus-galli)
- testName: Test C flooded paddy test
- Type: in vivo
- statedConditions: flooded paddy test; Rate 62 g/ha; visually evaluated after 12 to 14 days; 0 = no effect, 100 = complete control
Listed molecules paired with reported Plant response rating (scale 0 to 100), Barnyardgrass
outcomeMeasure: Plant response rating (scale 0 to 100), Barnyardgrass

>>> endpointresult("CCC(C)c1ccn(C2CCN(c3ccc(F)c(C(F)(F)F)c3)C2=O)n1 (stereo not drawn) [Compound 145]")
30
>>> endpointresult("COc1cc(N2CCC(n3ccc(C(C)(C)C)n3)C2=O)cc2ccccc12 (stereo not drawn) [Compound 136]")
0
>>> endpointresult("CCC(CC)c1ccn(C2CCN(c3ccc(F)c(C(F)(F)F)c3)C2=O)n1 (stereo not drawn) [Compound 144]")
100
>>> endpointresult("CCC(CC)c1ccn(C2OCN(c3cccc(OC(F)F)c3)C2=O)n1 (stereo not drawn) [Compound 131]")
100
>>> endpointresult("CCC(C)c1ccn(C2OCN(c3cccc(OC(F)F)c3)C2=O)n1 (stereo not drawn) [Compound 134]")
100
>>> endpointresult("COc1cc(C)nc(N2CCC(n3ccc(C(C)(C)C)n3)C2=O)n1 (stereo not drawn) [Compound 137]")
0

====

- Test system: goosegrass (Eleusine indica)
- testName: Test C preemergence
- Format: in vivo
- statedConditions: Rate 62 g/ha; scale 0 to 100, 0 no effect, 100 complete control
Plant response rating, Goosegrass values for the compounds below.
outcomeMeasure: Plant response rating, Goosegrass

>>> endpointresult("O=C1C(n2ccc(C3CCCCC3)n2)OCN1c1cccc(C(F)(F)F)c1 (centres unmarked)")
80
>>> endpointresult("O=C1C(n2ccc(C3CCC3)n2)SCN1c1cccc(C(F)(F)F)c1 (centres unmarked)")
90
>>> endpointresult("CCC(CC)c1ccn(C2SCN(c3cccc(C(F)(F)F)c3)C2=O)n1 (centres unmarked)")
100
>>> endpointresult("CC(C)(C)c1ccn(C2CCN(c3cccc(OC(F)F)c3)C2=O)n1 (centres unmarked)")
100
>>> endpointresult("CC(C)Oc1cccc(N2CCC(n3ccc(C(C)(C)C)n3)C2=O)c1 (centres unmarked)")
90

====

- Tested on: lambsquarters (Chenopodium album)
- testName: Test B postemergence
- Type: in vivo
- statedConditions: Rate 500 g/ha, scale 0 to 100, 0 is no effect, 100 is complete control, 13 to 15 days
# binarize Plant response rating, Lambsquarters: threshold 90 inclusive, high side condition met, low side condition not met

>>> discretelabel("CCCC(C)c1ccn(C2CCN(c3cccc(C(F)(F)F)c3)C2=O)n1 (stereo not drawn) [Compound 100]")
"condition not met"
>>> discretelabel("CCC(C)Oc1ccn(C2CCN(c3cccc(C(F)(F)F)c3)C2=O)n1 (stereo not drawn) [Compound 58]")
"condition not met"
>>> discretelabel("Cc1ccc(N2CCC(n3ccc(C(C)(C)C)n3)C2=O)cc1OC(F)F (stereo not drawn) [Compound 79]")
"condition not met"
>>> discretelabel("CC(C)(C)c1ccn(C2CCN(c3ccc(Cl)c(Cl)c3)C2=O)n1 (stereo not drawn) [Compound 34]")
"condition met"
>>> discretelabel("CC(C)(C)c1ccn(C2CCN(c3cccc([S+]([O-])C(F)(F)F)c3)C2=O)n1 (stereo not drawn) [Compound 101]")
"condition not met"
>>> discretelabel("O=C1C(n2cccn2)CCN1c1cccc(C(F)(F)F)c1 (stereo not drawn) [Compound 15]")
"condition not met"
>>> discretelabel("CCC(CC)c1ccn(C2OCN(c3cccc(OC(F)(F)F)c3)C2=O)n1 (stereo not drawn) [Compound 68]")
"condition met"

====

- Tested on: rice (Oryza saliva)
- testName: Test C flooded paddy test
- Assay type: in vivo
- statedConditions: flooded paddy test, Rate 62 g/ha; scale 0 to 100 (0 no effect, 100 complete control)
In this section we review reported Plant response rating, Rice values for a set of compounds.
outcomeMeasure: Plant response rating, Rice

>>> endpointresult("CC1(c2ccn(C3OCN(c4cccc(OC(F)(F)F)c4)C3=O)n2)CC1 (stereo not drawn)")
0
>>> endpointresult("CC(C)(C)c1ccn(C2CCN(c3ccc(Cl)c(Cl)c3)C2=O)n1 (stereo not drawn)")
0
>>> endpointresult("Cc1ccc(N2CCC(n3ccc(C(C)(C)C)n3)C2=O)cc1OC(F)F (stereo not drawn)")
0
>>> endpointresult("COc1cc(OC)cc(N2CCC(n3ccc(C(C)(C)C)n3)C2=O)c1 (stereo not drawn)")
0
>>> endpointresult("CCC(CC)c1ccn(C2CCN(c3ccc(C)c(OC)c3)C2=O)n1 (stereo not drawn)")
0
>>> endpointresult("CC(C)(C)c1ccn(C2CCN(c3cccc(C(F)(F)F)c3)C2=S)n1 (stereo not drawn)")
20
>>> endpointresult("Cc1c(Cl)cc(N2CCC(n3ccc(C(C)(C)C)n3)C2=O)cc1Cl (stereo not drawn)")
0
>>> endpointresult("O=C1C(n2ccc(C3CCC3)n2)OCN1c1cccc(C(F)(F)F)c1 (stereo not drawn)")
0
>>> endpointresult("CCCCC(C)c1ccn(C2OCN(c3cccc(C(F)(F)F)c3)C2=O)n1 (stereo not drawn)")
0
>>> endpointresult("Cc1ccc(N2CCC(n3ccc(C(C)(C)C)n3)C2=O)cc1OCCCl (stereo not drawn)")
0
>>> endpointresult("O=C1C(n2ccc(C3CCC3)n2)SCN1c1cccc(OC(F)(F)F)c1 (stereo not drawn)")
20
>>> endpointresult("CC(C)(C)c1ccn(C2SCN(c3cccc(OC(F)F)c3)C2=O)n1 (stereo not drawn)")
30
>>> endpointresult("CCOC(=O)c1cccc(N2CCC(n3ccc(C(C)(C)C)n3)C2=O)c1 (stereo not drawn)")
0
>>> endpointresult("CCCCC(C)c1ccn(C2OCN(c3cccc(OC(F)(F)F)c3)C2=O)n1 (stereo not drawn)")
0
>>> endpointresult("CCCC(C)c1ccn(C2OCN(c3cccc(C(F)(F)F)c3)C2=O)n1 (stereo not drawn)")
0
>>> endpointresult("CCCCC(C)c1ccn(C2SCN(c3cccc(C(F)(F)F)c3)C2=O)n1 (stereo not drawn)")
0
>>> endpointresult("O=C1C(n2ccc(C3CC3)n2)SCN1c1cccc(C(F)(F)F)c1 (stereo not drawn)")
0
>>> endpointresult("CC(C)(C)c1ccn(C2CCN(c3ccc(Cl)c(Br)c3)C2=O)n1 (stereo not drawn)")
0

====

- System: bermudagrass (Cynodon dactylon)
- testName: Test C postemergence
- Assay type: in vivo
- statedConditions: Rate 250 g/ha, scale 0 to 100 (0 no effect, 100 complete control)
- Description: […]
Some compounds, each annotated with its measured Plant response rating, Bermudagrass.
outcomeMeasure: Plant response rating, Bermudagrass

>>> endpointresult("CCC(CC)c1ccn(C2CCN(c3ccc(Br)c(OC)c3)C2=O)n1 (centres unmarked) [Compound 143]")
70
>>> endpointresult("COc1cc(N2CCC(n3ccc(C(C)(C)C)n3)C2=O)ccc1Cl (centres unmarked) [Compound 117]")
50
>>> endpointresult("Cc1ccc(N2CCC(n3ccc(C(C)(C)C)n3)C2=O)cc1I (centres unmarked) [Compound 122]")
0
>>> endpointresult("O=C1C(n2ccc(C3CCC3)n2)SCN1c1cccc(C(F)(F)F)c1 (centres unmarked) [Compound 37]")
0
>>> endpointresult("COc1cc(N2CCC(n3ccc(C(C)(C)C)n3)C2=O)ccc1Br (centres unmarked) [Compound 141]")
60
>>> endpointresult("CCC(C)c1ccn(C2CCN(c3ccc(Cl)c(OC)c3)C2=O)n1 (centres unmarked) [Compound 119]")
0
>>> endpointresult("CCCC(C)c1ccn(C2CCN(c3ccc(Cl)c(OC)c3)C2=O)n1 (centres unmarked) [Compound 121]")
0
>>> endpointresult("COc1cc(N2CCC(n3ccc(C(C)C)n3)C2=O)ccc1Br (centres unmarked) [Compound 140]")
70
